Kd for assorted binders
Molecular target: N501Y mutant RBD (SARS-CoV-2 Alpha (B.1.1.7), RBD N501Y, N501Y)
Assay: BLI
The response must be a number in nM with no trailing unit.

Below, each entry is followed by its recorded Kd result.
Y8.10 (scFv, V domains shown) VH: QVQLQQSGAEVKKPGSSVKVSCKASGGTFGNWSISWVRQAPGQGLEWMGGIAPGQGEATYAQKFQGRVTITTDESTSTAYMELSSLRSEDTAVYYCARETWYTSGGMDVWGQGTTVTVSS VL: SYELTQPPSVSVAPGKTARITCGGNNIGRKSVHWYQQKPGQAPVLVVYDDSDRPSGIPERFSGSNSGNTATLTISRVEAGDEADYYCQVYDLWSSDYVFGTGTKVEIK : 21.3
Y9.6 (scFv, V domains shown) VH: QVQLQQSGAEVKKPGSSVKVSCKASGGTFGNWTISWVRQAPGQGLEWMGGIIPTIGEATYAQKFQGRVTITTDESTSTAYMELSSLRSEDTAVYYCARETWYTSGGMDVWGQGTTVTVSS VL: SYELTQPPSVSVAPGKTARITCGGNNIGRKSVHWYQQKPGQAPVLVVYDDSDRPSGIPERFSGSNSGNTATLTISRVEAGDEADYYCQVYDLWSSDYVFGTGTKVEIK : 263

Quick one: give measured Kd for Y7.10 (scFv, V domains shown) VH: QVQLQQSGAEVKKPGSSVKVSCKASGGTFGNWTISWVRQAPGQGLEWMGGIIPSRGEATYAQKFQGRVTITTDESTSTAYMELSSLRSEDTAVYYCARETWYTSGGMDVWGQGTTVTVSS VL: SYELTQPPSVSVAPGKTARITCGGNNIGRKSVHWYQQKPGQAPVLVVYDDSDRPSGIPERFSGSNSGNTATLTISRVEAGDEADYYCQVYDLWSSDYVFGTGTKVEIK
41.2
